Target chain: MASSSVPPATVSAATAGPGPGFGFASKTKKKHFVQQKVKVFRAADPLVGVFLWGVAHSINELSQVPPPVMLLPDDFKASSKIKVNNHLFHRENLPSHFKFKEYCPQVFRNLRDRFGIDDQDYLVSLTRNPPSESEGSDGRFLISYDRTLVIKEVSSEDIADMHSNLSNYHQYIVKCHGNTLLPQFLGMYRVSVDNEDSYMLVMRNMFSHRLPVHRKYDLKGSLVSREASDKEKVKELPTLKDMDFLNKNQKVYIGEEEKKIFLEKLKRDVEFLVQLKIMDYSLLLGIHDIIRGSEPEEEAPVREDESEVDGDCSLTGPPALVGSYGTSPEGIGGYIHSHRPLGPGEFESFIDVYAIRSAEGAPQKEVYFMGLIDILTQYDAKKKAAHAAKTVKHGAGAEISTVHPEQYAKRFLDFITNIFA
The source made the active and inactive calls.
Respond with a class label; see active, inactive

>>> classification("CNC(=O)c1ccc(Nc2ncc(C(F)(F)F)c(NCc3nccnc3N(C)S(C)(=O)=O)n2)cc1 [DEFACTINIB]")
"inactive"
>>> classification("O=C(Nc1ccc(OC(F)(F)F)cc1)c1sccc1NCc1ccnc2ccccc12 [OSI-930]")
"inactive"
>>> classification("Cc1cc(-c2cc(OC(=O)c3ccccc3)ccc2Cl)cc2nnc(Nc3ccc(OCCN4CCCC4)cc3)nc12 [TG100-801]")
"inactive"
>>> classification("O=S(=O)(c1cccc2cnccc12)N1CCCNCC1 [FASUDIL]")
"inactive"

Check the results log: what was the call for CC1(COc2ccc3c(c2)ncn3-c2ccc3cccc(N4CCC(N)CC4)c3n2)COC1 [CRENOLANIB] ?
inactive

Check the results log: what was the call for FC(F)(F)c1ccc(CNc2ccc(Cc3c[nH]c4ncc(Cl)cc34)cn2)cn1 [PEXIDARTINIB] ?
inactive

Check the results log: what was the call for Cn1cc(-c2[nH]c3cc(NC(=O)[C@H](N)C4CCCCC4)cc4c3c2C=NNC4=O)cn1 ?
inactive

Check the results log: what was the call for CN(c1ncccc1CNc1nc(Nc2ccc3c(c2)CC(=O)N3)ncc1C(F)(F)F)S(C)(=O)=O [PF-00562271] ?
inactive

Check the results log: what was the call for COc1ccc2c(OCc3nnc4ccc(-c5ccccc5)nn34)ccnc2c1 [AMG-208] ?
inactive

Check the results log: what was the call for CNC(=O)c1cccc(-c2ccc3c(N4CCOC[C@@H]4C)nc(N4CCOC[C@@H]4C)nc3n2)c1 [VISTUSERTIB] ?
inactive

Check the results log: what was the call for Cc1ccc(C(=O)Nc2ccc(Oc3cc4cnn(C)c4cc3-c3cn[nH]c3)c(F)c2)c(=O)n1-c1ccc(F)cc1 [MERESTINIB] ?
inactive

Check the results log: what was the call for Cc1cc(C(=O)Nc2cc(Oc3ccc4nc(NC(=O)C5CC5)cn4n3)ccc2C)n(C)n1 [TAK-593] ?
inactive

Check the results log: what was the call for O=c1[nH]c([C@@H]2CCCN2)nc2c1oc1ccc(Cl)cc12 ?
inactive

Check the results log: what was the call for O=C(NOC[C@H](O)CO)c1ccc(F)c(F)c1Nc1ccc(I)cc1F [MIRDAMETINIB] ?
inactive

Check the results log: what was the call for C=CC(=O)Nc1cccc(Nc2nc(Nc3ccc(N4CCN(C(C)=O)CC4)cc3OC)ncc2C(F)(F)F)c1 [ROCILETINIB] ?
inactive

---

# tgt: Proto-oncogene tyrosine-protein kinase receptor Ret (Homo sapiens, UniProt P07949)
# Sequence (P07949 whole entry): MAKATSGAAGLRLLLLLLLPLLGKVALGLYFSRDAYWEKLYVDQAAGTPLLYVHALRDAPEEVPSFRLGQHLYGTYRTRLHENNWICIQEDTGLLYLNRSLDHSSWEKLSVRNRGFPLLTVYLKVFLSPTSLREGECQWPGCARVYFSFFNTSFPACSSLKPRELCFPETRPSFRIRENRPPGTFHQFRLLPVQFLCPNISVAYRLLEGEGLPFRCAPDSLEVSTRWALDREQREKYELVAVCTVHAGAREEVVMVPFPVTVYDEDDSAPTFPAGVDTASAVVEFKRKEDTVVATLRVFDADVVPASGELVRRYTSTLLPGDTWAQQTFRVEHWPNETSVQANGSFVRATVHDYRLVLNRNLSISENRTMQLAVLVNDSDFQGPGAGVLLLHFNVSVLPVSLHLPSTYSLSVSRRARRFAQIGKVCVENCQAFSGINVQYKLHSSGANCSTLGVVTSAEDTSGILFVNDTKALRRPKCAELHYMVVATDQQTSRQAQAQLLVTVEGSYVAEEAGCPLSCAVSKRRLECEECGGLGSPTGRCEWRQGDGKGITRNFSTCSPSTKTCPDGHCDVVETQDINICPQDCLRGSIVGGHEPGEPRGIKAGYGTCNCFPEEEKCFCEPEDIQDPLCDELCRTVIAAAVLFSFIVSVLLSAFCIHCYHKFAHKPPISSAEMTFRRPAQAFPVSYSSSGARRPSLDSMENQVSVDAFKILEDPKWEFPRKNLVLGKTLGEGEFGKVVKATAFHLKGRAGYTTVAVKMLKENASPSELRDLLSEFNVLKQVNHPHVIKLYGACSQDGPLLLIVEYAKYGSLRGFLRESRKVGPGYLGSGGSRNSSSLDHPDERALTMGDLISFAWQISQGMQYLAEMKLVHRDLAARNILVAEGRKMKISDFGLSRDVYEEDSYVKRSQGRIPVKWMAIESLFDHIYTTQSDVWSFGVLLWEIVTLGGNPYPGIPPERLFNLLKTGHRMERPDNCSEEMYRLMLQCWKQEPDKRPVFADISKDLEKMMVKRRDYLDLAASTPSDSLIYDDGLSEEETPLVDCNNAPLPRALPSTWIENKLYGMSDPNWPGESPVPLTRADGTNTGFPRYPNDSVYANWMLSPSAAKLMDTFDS
Calls of active or inactive are those of the source.
Respond with a class label; see Y (active), N (inactive)

Examples from the recorded data:
>>> classification("Cn1cc(-c2[nH]c3cc(NC(=O)[C@H](N)C4CCCCC4)cc4c3c2C=NNC4=O)cn1")
"Y"
>>> classification("COc1cc2ncnc(Nc3ccc(F)c(Cl)c3)c2cc1NC(=O)/C=C/CN1CCCCC1 [DACOMITINIB ANHYDROUS]")
"N"
>>> classification("COc1ccc(-c2ccc3ncc4c(c3c2)n(-c2ccc(N3CCNCC3)c(C(F)(F)F)c2)c(=O)n4C)cn1 [BGT-226 FREE BASE]")
"N"
>>> classification("CC(C)(O)CC(=O)NCCn1ccc2ncnc(Nc3ccc(Oc4cccc(C(F)(F)F)c4)c(Cl)c3)c21")
"N"
>>> classification("NC(=O)c1ccc(N(C(N)=O)c2c(F)cccc2F)nc1-c1ccc(F)cc1F")
"N"

Check the results log: what was the call for Cc1c(NC(=O)OC[C@@H]2COCCN2)cn2ncnc(Nc3ccc4c(cnn4Cc4cccc(F)c4)c3)c12 ?
N

---

Active and inactive are the calls of the source.
As a worked illustration, we turn to Kd data collected for DNA topoisomerase 2-alpha (Homo sapiens).

The examples below pair each entry with its known result.
>>> readout_value("Cn1cc(-c2[nH]c3cc(NC(=O)[C@H](N)C4CCCCC4)cc4c3c2C=NNC4=O)cn1")
"> 30 µM (inactive)"
>>> readout_value("CNC(=O)c1cc(COc2nnc(Nc3ccc(Cl)cc3)c3ccoc23)ccn1")
"> 30 µM (inactive)"
>>> readout_value("COc1ccc2c(OCc3nnc4ccc(-c5ccccc5)nn34)ccnc2c1")
"> 30 µM (inactive)"
>>> readout_value("O=c1[nH]c([C@@H]2CCCN2)nc2c1oc1ccc(Cl)cc12")
"> 30 µM (inactive)"
>>> readout_value("FC(F)(F)c1ccc(CNc2ccc(Cc3c[nH]c4ncc(Cl)cc34)cn2)cn1")
"> 30 µM (inactive)"

Kd measured on COc1cccc2cc(-c3nc([C@H]4CC[C@H](C(=O)O)CC4)n4ncnc(N)c34)[nH]c12 = > 30 µM (inactive)

Kd measured on O=C(NOC[C@H](O)CO)c1ccc(F)c(F)c1Nc1ccc(I)cc1F = > 30 µM (inactive)

Kd measured on O=C(NC[C@H](O)CO)c1ccncc1Nc1ccc(I)cc1F = > 30 µM (inactive)

Kd measured on C=CC(=O)Nc1cccc(Nc2nc(Nc3ccc(N4CCN(C(C)=O)CC4)cc3OC)ncc2C(F)(F)F)c1 = > 30 µM (inactive)

---

# tgt: Breakpoint cluster region protein (Homo sapiens)
# Sequence (P11274 whole entry): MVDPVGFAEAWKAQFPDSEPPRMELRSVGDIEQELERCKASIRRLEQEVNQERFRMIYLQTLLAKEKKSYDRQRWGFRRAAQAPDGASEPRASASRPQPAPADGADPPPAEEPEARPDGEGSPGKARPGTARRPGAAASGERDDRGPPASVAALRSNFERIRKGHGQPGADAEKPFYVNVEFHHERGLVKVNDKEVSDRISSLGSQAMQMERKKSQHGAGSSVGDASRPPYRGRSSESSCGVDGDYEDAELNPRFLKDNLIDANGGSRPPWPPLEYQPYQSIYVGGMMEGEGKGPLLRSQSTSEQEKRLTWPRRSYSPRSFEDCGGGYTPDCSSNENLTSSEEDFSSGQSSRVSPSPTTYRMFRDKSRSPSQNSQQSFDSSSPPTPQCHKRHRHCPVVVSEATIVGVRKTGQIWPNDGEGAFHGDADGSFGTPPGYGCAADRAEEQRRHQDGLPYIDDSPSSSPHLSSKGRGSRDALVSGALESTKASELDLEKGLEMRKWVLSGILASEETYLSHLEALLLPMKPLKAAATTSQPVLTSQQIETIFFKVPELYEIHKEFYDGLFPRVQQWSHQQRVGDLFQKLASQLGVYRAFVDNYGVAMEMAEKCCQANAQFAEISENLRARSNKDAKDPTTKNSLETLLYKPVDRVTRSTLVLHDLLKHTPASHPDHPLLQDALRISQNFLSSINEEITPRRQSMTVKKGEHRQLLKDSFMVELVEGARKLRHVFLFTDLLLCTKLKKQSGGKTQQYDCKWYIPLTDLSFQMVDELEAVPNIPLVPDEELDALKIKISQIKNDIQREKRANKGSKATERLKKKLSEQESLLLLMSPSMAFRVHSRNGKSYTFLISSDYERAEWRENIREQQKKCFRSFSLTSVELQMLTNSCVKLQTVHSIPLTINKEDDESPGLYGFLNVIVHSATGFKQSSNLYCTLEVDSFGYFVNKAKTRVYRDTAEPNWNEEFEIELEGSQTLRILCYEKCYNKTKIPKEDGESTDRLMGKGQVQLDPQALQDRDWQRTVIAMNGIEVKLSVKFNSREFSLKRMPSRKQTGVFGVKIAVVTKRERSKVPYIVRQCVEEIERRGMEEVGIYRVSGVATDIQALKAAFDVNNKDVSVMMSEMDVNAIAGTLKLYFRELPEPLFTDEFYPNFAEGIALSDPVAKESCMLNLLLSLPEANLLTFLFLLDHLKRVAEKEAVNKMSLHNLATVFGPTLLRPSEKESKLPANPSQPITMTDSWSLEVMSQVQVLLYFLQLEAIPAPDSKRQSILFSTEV
Active and inactive are the calls of the source.
Respond with a class label; see active, inactive

Examples from the recorded data:
>>> classification("CC[C@@](C)(Nc1ccnc(-c2c[nH]c3ncccc23)n1)C(=O)NCC(F)(F)F")
"inactive"
>>> classification("FC(F)(F)c1ccc(CNc2ccc(Cc3c[nH]c4ncc(Cl)cc34)cn2)cn1")
"inactive"
>>> classification("Cn1c(=O)n(-c2ccc(C(C)(C)C#N)cc2)c2c3cc(-c4cnc5ccccc5c4)ccc3ncc21")
"inactive"
>>> classification("COc1cc2nccc(Oc3ccc(NC(=O)C4(C(=O)Nc5ccc(F)cc5)CC4)cc3)c2cc1OC [CABOZANTINIB]")
"active"
>>> classification("COc1cc(Nc2ncc(F)c(Nc3ccc4c(n3)N(COP(=O)(O)O)C(=O)C(C)(C)O4)n2)cc(OC)c1OC")
"inactive"
>>> classification("COc1cccc2cc(-c3nc([C@H]4CC[C@H](C(=O)O)CC4)n4ncnc(N)c34)[nH]c12")
"inactive"
>>> classification("N#CCNC(=O)c1ccc(-c2ccnc(Nc3ccc(N4CCOCC4)cc3)n2)cc1")
"inactive"
>>> classification("CCOc1ccn(-c2ccc(F)cc2)c(=O)c1C(=O)Nc1ccc(Oc2ccnc(N)c2Cl)c(F)c1")
"inactive"
>>> classification("CCN(CCCOc1ccc2c(Nc3cc(CC(=O)Nc4cccc(F)c4)n[nH]3)ncnc2c1)CCOP(=O)(O)O")
"inactive"

Now, please, on to the next compound.
Check the results log: what was the call for C=CC(=O)Nc1cccc(Nc2nc(Nc3ccc(N4CCN(C(C)=O)CC4)cc3OC)ncc2C(F)(F)F)c1 ?
inactive

---

# tgt: TGF-beta receptor type-2 (Homo sapiens, UniProt P37173)
# Sequence (P37173 whole entry): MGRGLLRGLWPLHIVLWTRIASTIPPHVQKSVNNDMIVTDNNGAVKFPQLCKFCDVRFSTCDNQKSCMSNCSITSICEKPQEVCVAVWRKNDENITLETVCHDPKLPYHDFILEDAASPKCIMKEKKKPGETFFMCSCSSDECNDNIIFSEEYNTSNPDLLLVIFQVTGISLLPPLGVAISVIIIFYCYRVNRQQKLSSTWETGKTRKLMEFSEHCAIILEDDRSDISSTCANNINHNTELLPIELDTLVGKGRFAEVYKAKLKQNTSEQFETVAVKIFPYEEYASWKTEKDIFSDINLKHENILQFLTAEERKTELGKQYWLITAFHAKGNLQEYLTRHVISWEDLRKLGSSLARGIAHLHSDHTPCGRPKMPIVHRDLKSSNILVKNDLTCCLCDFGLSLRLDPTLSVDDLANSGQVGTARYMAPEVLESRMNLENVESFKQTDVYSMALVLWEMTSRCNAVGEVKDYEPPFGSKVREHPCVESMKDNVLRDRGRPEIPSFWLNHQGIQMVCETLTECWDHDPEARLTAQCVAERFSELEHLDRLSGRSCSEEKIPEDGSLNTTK
Activity calls are given as the source filed them.
measurement_type: Kd

>>> readout_value("CNC(=O)c1cccc(-c2ccc3c(N4CCOC[C@@H]4C)nc(N4CCOC[C@@H]4C)nc3n2)c1")
"> 30 µM (inactive)"

Query compound follows.
Per the reported TGF-beta receptor type-2 (Homo sapiens, UniProt P37173) data, C=CCN(/C=C1/C(=O)O[C@H](COC)[C@@]2(C)C1=C(O)C(=O)C1=C2[C@H](OC(C)=O)C[C@]2(C)C(=O)CC[C@@H]12)CC=C has Kd of > 30 µM (inactive)

---

# tgt: Receptor-interacting serine/threonine-protein kinase 3 (Homo sapiens, UniProt Q9Y572)
# Sequence (Q9Y572 whole entry): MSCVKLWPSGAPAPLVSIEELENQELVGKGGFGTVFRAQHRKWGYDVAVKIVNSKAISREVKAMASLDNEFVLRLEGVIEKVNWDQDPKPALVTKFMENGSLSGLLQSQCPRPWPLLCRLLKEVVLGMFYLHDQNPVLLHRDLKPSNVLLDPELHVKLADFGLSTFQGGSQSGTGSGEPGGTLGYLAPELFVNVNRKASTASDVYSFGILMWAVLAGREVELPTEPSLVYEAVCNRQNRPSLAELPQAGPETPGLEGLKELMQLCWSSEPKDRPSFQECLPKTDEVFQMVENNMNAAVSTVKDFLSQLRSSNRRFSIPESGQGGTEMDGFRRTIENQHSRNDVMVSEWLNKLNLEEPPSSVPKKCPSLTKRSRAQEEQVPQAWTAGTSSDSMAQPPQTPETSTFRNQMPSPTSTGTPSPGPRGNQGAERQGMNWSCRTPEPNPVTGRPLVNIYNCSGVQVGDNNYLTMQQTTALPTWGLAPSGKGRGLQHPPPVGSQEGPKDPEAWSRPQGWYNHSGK
Activity calls are given as the source filed them.
Respond with a class label; see Yes (active), No (inactive)

Check the results log: what was the call for COc1cc(F)c(F)c(Nc2ccc(I)cc2F)c1NS(=O)(=O)C1(C[C@H](O)CO)CC1 [REFAMETINIB] ?
No

Check the results log: what was the call for CN(C)C/C=C/C(=O)Nc1cc2c(Nc3ccc(F)c(Cl)c3)ncnc2cc1O[C@H]1CCOC1 [AFATINIB] ?
No

Check the results log: what was the call for CCc1nc(C(N)=O)c(Nc2ccc(N3CCC(N4CCN(C)CC4)CC3)c(OC)c2)nc1NC1CCOCC1 [GILTERITINIB] ?
Yes

Check the results log: what was the call for COc1cc2c(Oc3ccc4[nH]c(C)cc4c3F)ncnc2cc1OCCCN1CCCC1 [CEDIRANIB] ?
No
